Overview of reported pKi across a group of compounds:
Target: UniProtKB P22756
Sequence (P22756 whole entry): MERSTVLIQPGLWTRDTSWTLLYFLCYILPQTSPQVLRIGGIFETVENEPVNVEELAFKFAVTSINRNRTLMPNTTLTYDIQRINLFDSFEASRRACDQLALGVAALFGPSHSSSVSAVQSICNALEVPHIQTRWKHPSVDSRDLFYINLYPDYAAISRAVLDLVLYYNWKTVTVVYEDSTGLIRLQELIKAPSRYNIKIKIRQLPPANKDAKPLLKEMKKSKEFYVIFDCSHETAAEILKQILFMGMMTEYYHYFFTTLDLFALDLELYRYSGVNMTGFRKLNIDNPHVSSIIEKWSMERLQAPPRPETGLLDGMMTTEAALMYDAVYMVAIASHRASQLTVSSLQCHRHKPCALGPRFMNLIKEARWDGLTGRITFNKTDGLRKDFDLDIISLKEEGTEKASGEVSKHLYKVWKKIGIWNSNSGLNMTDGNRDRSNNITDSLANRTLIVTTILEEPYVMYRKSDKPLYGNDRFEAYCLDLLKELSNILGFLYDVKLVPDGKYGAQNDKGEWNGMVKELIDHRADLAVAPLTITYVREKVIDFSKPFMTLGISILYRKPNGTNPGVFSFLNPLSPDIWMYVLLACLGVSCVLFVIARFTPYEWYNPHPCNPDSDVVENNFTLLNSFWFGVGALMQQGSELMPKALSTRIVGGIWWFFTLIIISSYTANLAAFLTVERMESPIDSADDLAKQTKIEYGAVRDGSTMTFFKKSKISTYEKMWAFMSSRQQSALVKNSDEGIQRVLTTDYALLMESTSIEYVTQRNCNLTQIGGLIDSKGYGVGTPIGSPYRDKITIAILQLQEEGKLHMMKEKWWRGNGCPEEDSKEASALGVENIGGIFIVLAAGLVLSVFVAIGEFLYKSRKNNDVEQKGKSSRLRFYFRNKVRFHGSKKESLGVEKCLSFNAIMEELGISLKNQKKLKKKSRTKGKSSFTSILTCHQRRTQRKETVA
pKi: −log10 of the molar value.

Worked examples follow.
[
  {
    "compound": "C[C@H](NC(=O)CNC(=O)[C@@H](NC(=O)[C@H](Cc1ccccc1)NC(=O)CNC(=O)CNC(=O)[C@@H](N)Cc1ccccc1)[C@@H](C)O)C(=O)N[C@@H](CCCN=C(N)N)C(=O)N[C@@H](CCCCN)C(=O)N[C@@H](CO)C(=O)N[C@@H](C)C(=O)N[C@@H](CCCN=C(N)N)C(=O)N[C@@H](CCCCN)C(N)=O [OFQ/N (1-11),[Tyr10]]",
    "measure.name": "pKi",
    "result": "< 5.00"
  },
  {
    "compound": "Cc1onc(C(=O)O)c1C[C@@H](N)C(=O)O [(R)-ACPA]",
    "measure.name": "pKi",
    "result": "< 5.00"
  },
  {
    "compound": "Cc1onc(C(=O)O)c1CC(N)C(=O)O (centres undefined)",
    "measure.name": "pKi",
    "result": 5.20
  }
]

Now consider a different compound.
// query Answer briefly: pKi recorded on UniProtKB P22756 for N[C@@H](Cc1conc1C(=O)O)C(=O)O [(R)-Demethyl-ACPA]
// result < 5.00
